test system: Puccinia recondita f. sp. tritici (the causal agent of wheat leaf rust); experiment: Test C: preventive spray on wheat seedlings, wheat leaf rust, visual disease rating; format: in vivo; settings: test suspension 255 ppm; wheat seedlings
# Test C disease control rating per record follows
quantity: Test C disease control rating (%)

> print(dat)
                                   compound  experimental.result
1  FC(F)(F)c1nc(-c2ccc(Cn3cc4cc(Br)ccc4n3)cc2)no1                  100
2  CCOC(=O)c1cnn(Cc2ccc(-c3noc(C(F)(F)F)n3)s2)c1                  100
3  COC(=O)c1nn(Cc2ccc(-c3noc(C(F)(F)F)n3)cc2)c2ccccc12                   80
4  CCOC(=O)c1nn(Cc2ccc(-c3noc(C(F)(F)F)n3)cc2)c2ccccc12                   41
5  CCOC(=O)c1cn(Cc2ccc(-c3noc(C(F)(F)F)n3)cc2)nc1C(F)(F)F                   86
6  O=C1CCN(Cc2ccc(-c3noc(C(F)(F)F)n3)cc2)CC1                  100
7  CCNC(=O)C1=NOC(Cc2ccc(-c3noc(C(F)(F)F)n3)cc2)C1 (stereo not drawn)                  100
8  COC(=O)c1ncn(Cc2ccc(-c3noc(C(F)(F)F)n3)cc2)n1                  100
9  FC(F)(F)c1nc(-c2ccc(Cn3ncc4cc(Br)ccc43)cc2)no1                  100

* * *

Listed next: entries and their corresponding Test B disease control rating.
tested on: Zymoseptoria tritici (the causal agent of wheat leaf blotch); assay: Test B: preventive spray on wheat seedlings, wheat leaf blotch, visual disease rating; format: in vivo; conditions: test suspension 250 ppm; wheat seedlings
Marks after values point to notes of the source that are not given here.
quantity: Test B disease control rating

> print(dat)
                                    molecule                       quantity  experimental.result
 1  COC(=O)c1ccc(COc2ccc(-c3noc(C(F)(F)F)n3)cc2)cc1  Test B disease control rating                20* %
 2     FC(F)(F)c1nc(-c2ccc(OCc3ccon3)cc2)no1  Test B disease control rating                11* %
 3  O=C(NCC(F)(F)F)c1csc(Cc2ccc(-c3noc(C(F)(F)F)n3)cc2)c1  Test B disease control rating                 3* %
 4  O=C(NC1CCOC1=O)c1coc(Cc2ccc(-c3noc(C(F)(F)F)n3)cc2)n1 (stereo not drawn)  Test B disease control rating                99* %
 5  O=C(O)c1coc(Cc2ccc(-c3noc(C(F)(F)F)n3)cc2)n1  Test B disease control rating                46* %
 6  Cn1ccc(CNC(=O)c2coc(Cc3ccc(-c4noc(C(F)(F)F)n4)cc3)n2)n1  Test B disease control rating                93* %
 7  O=S1(=O)CCCN1Cc1ccc(-c2noc(C(F)(F)F)n2)s1  Test B disease control rating                80* %
 8  CC(C)(C)NN1C(=O)C(Cl)=C(Oc2ccc(-c3noc(C(F)(F)F)n3)cc2)C1=O  Test B disease control rating                99* %
 9      FC(F)(F)c1nc(-c2ccc(Cn3cccn3)cc2)no1  Test B disease control rating                   0%
10  Cn1c(C(F)(F)F)nn(CCc2ccc(-c3noc(C(F)(F)F)n3)cc2)c1=O  Test B disease control rating                   0%
11  CN(C)C(=O)c1coc(Cc2ccc(-c3noc(C(F)(F)F)n3)cc2)n1  Test B disease control rating                97* %
12  O=C(NC1CC1)c1coc(Cc2ccc(-c3noc(C(F)(F)F)n3)cc2)n1  Test B disease control rating                47* %
13  FC(F)(F)c1nc(-c2ccc(Cn3ccc4cccnc43)cc2)no1  Test B disease control rating                  89%
14  CCOC(=O)c1csc(Cc2ccc(-c3noc(C(F)(F)F)n3)cc2)n1  Test B disease control rating                96* %
15  COC(CNC(=O)c1coc(Cc2ccc(-c3noc(C(F)(F)F)n3)cc2)n1)OC  Test B disease control rating                98* %
16  FC(F)(F)c1nc(-c2ccc(Cn3ccc(-c4ccccc4)n3)cc2)no1  Test B disease control rating                   9%
17  N#Cc1ccc2ccn(Cc3ccc(-c4noc(C(F)(F)F)n4)cc3)c2c1  Test B disease control rating                  93%
18  FC(F)(F)c1cc(C(F)(F)F)n(Cc2ccc(-c3noc(C(F)(F)F)n3)cc2)n1  Test B disease control rating                   0%
